# test_details: NCI Yeast Anticancer Drug Screen. Data for the rad50 strain (AID 155);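 further: 0% = growth of vehicle-only cultures of the same strain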
# measurement_context: S. cerevisiae rad50 strain growth inhibition; at 50.0 µM; active compounds read high
Compounds without any hit were thinned out: in the full panel of roughly 79,000, 15% have a hit.
measured_quantity: growth inhibition (%)

1. [O-][n+]1ccc(Cl)cc1    -4.15
2. Cc1c(C#N)c2n(c1C)CCN2    -14.3
3. COc1nc2[nH]ccc2c(=O)n1C    -10.9
4. O=c1[nH]c(-c2ccccc2N=NN2CCCCC2)nc2ccccc12    -4.05
5. CC1NNC(=S)NN1    -19.3
6. Cc1ccc(C(C)(C#N)Nc2ccccc2)cc1 (stereo not drawn)    -7.05
7. C/C(=N\N=C(N)N)C(CN(CC(C)C)CC(C)C)C(=O)Nc1ccc(C)cc1C (stereo not drawn)    7.6
8. O=C(O)Cn1cnc2c(=O)[nH]c(Nc3ccccc3)nc21    24.4
9. CCCCCCC(C)N1C(=O)c2ccccc2C1=O (stereo not drawn)    6.25
10. CCC(=O)SCC[N+](C)(C)C    16.1
11. O=C(O)c1ccccc1C(=O)Nc1ccc2ccccc2c1    15.9
12. C[C@H]1S[C@@H](c2ccc(Cl)cc2Cl)N(NC(=O)c2ccncc2)C1=O    57.9
13. Cc1c(CCNC(=O)C(F)(F)F)ccc2c1[nH]c1ccccc12    -3.3

---

# test_details: NCI Yeast Anticancer Drug Screen. Data for the bub3 strain (AID 167)
# measurement_context: S. cerevisiae bub3 mutant strain, at 50.0 µM, active compounds read high
About 79,000 compounds went through this panel and 15% of them were active in at least one assay; those are over-represented in the sample as a whole.
growth inhibition reference
measured_quantity: growth inhibition (%)

1) BrCc1ccc(C[P+](c2ccccc2)(c2ccccc2)c2ccccc2)cc1    29.2
2) O=C1NN=C(C2CCCCC2)C12CCCCC2    5.45
3) NC(=S)c1ccc[n+](Cc2c(Cl)cccc2Cl)c1    -0.15
4) O=C(NC(=S)Nc1cc(C(F)(F)F)ccc1Cl)c1ccccc1F    -1.35
5) CC(C)N(CC(c1ccccc1)C(O)(c1ccccc1)c1ccccc1)C(C)C (stereo unspecified)    -0.75
6) COC(=O)CN(C(=O)c1ccc(OC(C)=O)cc1)c1ccccc1    3.45
7) O=Cc1c2c(cc3c1CC1(C3)Cc3cc4c(c(C=O)c3C1)CCCC4)CCCC2    17.3
8) CCCCCCCC(=O)OCC(COC(=O)CCCCCCC)OC(=O)CCCCCCC    9.55
9) CCOC(=O)C(Br)CN1C(=O)c2ccccc2C1=O (stereo unspecified)    42
10) CC(C)c1ccc(NC(=S)NCCO)cc1    -4.1
11) CNC(=O)c1cc2nc3ccccc3c(=O)n2c2ccccc12    -7

---

# test_details: NCI Yeast Anticancer Drug Screen. Data for the cln2 rad14 strain (AID 165);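 further: 0% = growth equal to vehicle treated cultures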
# measurement_context: S. cerevisiae cln2 rad14 strain, at 50.0 µM, active compounds read high
This is part of a sample that, as a whole, favours compounds with a hit. Of some 79,000 tested, about 15% had one in any assay.
measured_quantity: growth inhibition (%)

1. O=C1NC(=O)C(c2ccc3c(c2)OCO3)N1 (configuration not stated)    -30.9
2. O=C(O)c1ccccc1Nc1ccccc1    -22.4
3. O=Cc1ccccc1S(=O)(=O)O    -45.4
4. O=C1CCCC(=O)c2c(O)ccc(O)c21    -3.4
5. Cc1nc(C(=O)O)c(C(=O)O)[nH]1    -1.7
6. O=c1cc(-c2ccc3c(c2)OCO3)oc2ccccc12    -2.35
7. COC(=O)/C=C/CCBr    -39.1

---

# test_details: NCI Yeast Anticancer Drug Screen. Data for the rad50 strain (AID 155);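 further: 0% = growth of vehicle-only cultures of the same strain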
# measurement_context: S. cerevisiae rad50 strain growth inhibition; at 50.0 µM; active compounds read high
About 79,000 compounds went through this panel and 15% of them were active in at least one assay; those are over-represented in the sample as a whole.
measured_quantity: growth inhibition (%)

1) O=c1[nH]c(=O)n(C2CC(O)C(CO)O2)c2ncncc12 (configuration not stated)    -0.85
2) COc1ccc(CCN2C(=O)C(=O)N(c3ccc(Cl)c(Cl)c3)C2=O)cc1OC    3.05
3) CCCCCCCCCCCCCCCCC(CCCCCCCCCCCCCCCC)c1ccccc1    35.2
4) C#CCN(C)C(C)=O    25.3
5) CCN(CC)CC(O)c1ccc2c(ccc3ccccc32)c1 (configuration not stated)    12.5
6) C/C(=N\O)C1(C)CC=CCC1C(=O)O (configuration not stated)    -4.8
7) CC1CCOC(C)(Cc2ccccc2)O1 (configuration not stated)    -2.8
8) O=C1CC(=O)N2C=CC=CC2N1 (configuration not stated)    -14.8
9) COc1ccc(C(=O)c2ccccc2C(=O)c2ccc(OC)cc2)cc1    -22.1
10) O=C(/C=C/C(=O)c1ccc(O)cc1)Oc1ccccc1    33.1
11) O=[N+]([O-])c1ccc(CN(Cc2ccc([N+](=O)[O-])cc2)c2ccc3c(c2)C(O)c2ccccc2-3)cc1 (configuration not stated)    9.95
12) COc1cccc(CN(CCc2cccc(OC)c2OC)C(=O)CN2CCOCC2)c1O    -3.8

---

# test_details: NCI Yeast Anticancer Drug Screen. Data for the cln2 rad14 strain (AID 165);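 further: 0% = growth equal to vehicle treated cultures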
# measurement_context: S. cerevisiae cln2 rad14 strain, at 50.0 µM, active compounds read high
The panel holds about 79,000 compounds, 15% with a hit somewhere; the sample as a whole holds those more often. *1 amine or outer side, *2 acyl side, *3 side chain or, on linkers, in order; H or OH if unused. Where a SMILES comes first, the peptide text is derived from it. [ ]: non-standard residue; d: D form. The star is where a group is joined. γGlu = O=C(O)[CH](CCC(=O)[*:2])N[*:1]; Cbz = O=C(OCc1ccccc1)*; Aib = CC(C)(N)C(=O)O; NHOH = ON*
Outcome label depends on growth inhibition relative to 10%: at/above gives y, below gives n.

1) CC(=O)CC(=O)NCCNC(=O)CC(C)=O    n
2) C/C(N=NC(=S)N1CCC(C)CC1)=C1\C=CC=CN1O    y
3) NC(=O)NC12CC3CC(CC(C3)C1)C2    n
4) CC1(C)C(=NNC(=S)NN)C(C)(C)C1=NNC(=S)NN    y
5) C[C@@H](CO)OCOCc1ccccc1    y
6) Cc1cc(Cl)ccc1OCC(=O)OCCBr    n
7) COc1c(NC(=O)c2c(Br)c(Br)c(Br)c(Br)c2C(=O)O)cccc1[N+](=O)[O-]    n
8) CCCCC1=CC1(C#N)[N+](=O)[O-] (stereo not given)    y
9) Clc1ccc2c(c1)CCc1cccnc1C2=C1CCNCC1    y
10) O=[N+]([O-])c1ccc2c(c1)nc(-c1ccccn1)n2CCc1ccncc1    y
11) CC(/C=C/c1ccccc1)=N\O    y
12) [O]=[W](=[O])([OH])[OH]    y
13) N#Cc1ccc(-c2nc3ccc(Cl)cc3[nH]2)cc1    n
14) CC(=O)N1C(NN(C)C)CCN1c1ccccc1 (stereo not given)    n
15) COc1cccc(/C=C(\C#N)C(=O)c2ccccc2)c1    y
16) Cn1c(=O)c(Br)cc2ccccc21    n
17) CCCCN(CCCC)CC(O)c1cccc2c1cc(Cl)c1ccccc12 (stereo not given)    y
18) O=C1CS/C1=C/c1ccccc1    n
19) CC(=NNC(=S)Nc1ccc(C)cc1)c1cccc(C(C)=NNC(=S)Nc2ccc(C)cc2)n1    y
20) N#CC(CCc1ccccc1[N+](=O)[O-])(CCc1ccccc1[N+](=O)[O-])C(N)=O    n
21) [B-]([C+]1CCCCC1)N1C=CC=CC1    n
22) NC(CCC(=O)NC(CCC(=O)NO)C(=O)NCC(=O)O)C(=O)O (stereo not given) (γGlu-Glu(NHOH)-Gly-OH; configuration not given here)    n
23) Nc1ccc2c(c1)Cc1c-2cc(Cl)c(N)c1Cl    n
24) c1ccc(-c2nnn(CCN3CCCCC3)n2)cc1    y
25) CC(C)(NC(=O)C(C)(C)NC(=O)OCc1ccccc1)C(=O)O (Cbz-[Aib]-[Aib]-OH)    y

---

# test_details: NCI Yeast Anticancer Drug Screen. Data for the bub3 strain (AID 167)
# measurement_context: S. cerevisiae bub3 mutant strain, at 50.0 µM, active compounds read high
Compounds without any hit were thinned out: in the full panel of roughly 79,000, 15% have a hit.
measured_quantity: growth inhibition (%)

1. CCN1CCCC(Nc2nc(Nc3ccc(Cl)c(Cl)c3)nc3ccc(Cl)cc23)C1 (stereo unspecified)    99.4
2. CC1(c2ccc(-c3ccccc3)cc2)NC(=O)NC1=O (stereo unspecified)    -4.85
3. O=C1NC2NC(=O)NC2N1 (stereo unspecified)    -2.05
4. CC(C)CCCC(C)C1CCC2(C)C3=C(CCC12C)C1(C)CCC(=O)C(C)(C)C1CC3 (stereo unspecified)    14.6
5. CCOC(=O)c1n[nH]c(C)c1C/C(=N/O)c1ccccc1    -14.9
6. Cc1ccc(S(=O)(=O)Nc2ccc(C(=O)Cl)cc2)cc1    27.4
